Experiment Notes: log P determination by HPLC (EEC Directive 79/831 Annex V.A8, gradient method)
Assay type: physicochemical
Measured Property: Physical data (logP)

(a) O=Cc1c(-c2ccccc2Cl)nc2sc(C(F)(F)C(F)(F)F)nn12
(b) O=C(O)/C=C/c1c(-c2cccnc2Cl)nc2sc(C(F)(F)F)nn12
In the pair a and b , the larger recorded Physical data (logP) belongs to which? # reply format: chosen label
a

(I) O=C(/C=C/c1c(-c2cccc(Cl)c2)nc2sc(C(F)(F)F)nn12)NC1CCCC1
(II) O=C(O)/C=C/c1c(-c2sccc2Cl)nc2sc(C(F)(F)F)nn12
Given I and II , report the one with the higher recorded Physical data (logP). To answer, give the label that identifies your chosen option.
I

(A) CCN(CC)C(=O)/C=C/c1c(-c2cccc(Cl)c2)nc2sc(C(F)(F)F)nn12
(B) CCNC(=O)/C=C/c1c(-c2ccccc2Cl)nc2sc(C(F)(F)F)nn12
Identify the entry with the larger Physical data (logP). Options: A and B Pick one and reply with its label.
A
(A: 4.28, B: 2.82)

----------
Experiment Notes: log P determination by HPLC (EEC Directive 79/831 Annex V.A8, gradient method)
Type: physicochemical
Conditions: HPLC, gradient method, acetonitrile/0.1% strength aqueous phosphoric acid or formic acid; read-out: Physical data: log P
Measured Property: chromatographic logP

compound=CCC(CC)NC(=O)/C=C/c1c(-c2ccccc2F)nc2sc(C(F)(F)F)nn12 data_value=3.59
compound="CC(NC(=O)/C=C/c1c(-c2ccccc2F)nc2sc(C(F)(F)F)nn12)C(F)(F)F (stereo not shown)" data_value=3.55
compound=O=C(/C=C/c1c(-c2ccc(F)cc2Cl)nc2sc(C(F)(F)F)nn12)NCC(F)(F)C(F)(F)F data_value=3.97
compound="CCC(C)NC(=O)/C=C/c1c(-c2ccccc2F)nc2sc(C(F)(F)F)nn12 (stereo not shown)" data_value=3.33
compound=CCC(CC)NC(=O)/C=C/c1c(-c2ccccc2C)nc2sc(C(F)(F)F)nn12 data_value=3.85
compound=CC(C)(C)NC(=O)/C=C/c1c(-c2ccc(F)cc2Cl)nc2sc(C(F)(F)F)nn12 data_value=3.89
compound=CC(C)NC(=O)/C=C/c1c(-c2ccc(F)cc2Cl)nc2sc(C(F)(F)F)nn12 data_value=3.32
compound="CCCC(C)NC(=O)/C=C/c1c(-c2ccccc2C)nc2sc(C(F)(F)F)nn12 (stereo not shown)" data_value=3.94
compound=O=C(/C=C/c1c(-c2ccc(F)cc2Cl)nc2sc(C(F)(F)F)nn12)Nc1ccc(F)cc1 data_value=4.17
compound="CC(NC(=O)/C=C/c1c(-c2ccc(F)cc2)nc2sc(C(F)(F)F)nn12)C(F)(F)F (stereo not shown)" data_value=3.72

----------
Reported pest or weed control at 500 g/ha values for the following molecules.
Tested on: caterpillars of the army worm (Spodoptera frugiperda)
Experiment Notes: Spodoptera frugiperda test, SPODFR spray treatment
Format: in vivo
Conditions: foliar, 168 h, 500 g a. i./ha, spray treatment of maize leaf discs, 7 d, read-out: % 7 d (effect in %, caterpillars killed)
State the answer as a number, implicitly in %.

molecule=CC(C)NC(=O)/C=C/c1c(-c2ccccc2Cl)nc2sc(C(F)(F)F)nn12 measurement_target="caterpillars of the army worm (Spodoptera frugiperda)" data_value=100
molecule="CC(NC(=O)/C=C/c1c(-c2ccccc2Cl)nc2sc(C(F)(F)Cl)nn12)C(F)(F)F (stereo not shown)" measurement_target="caterpillars of the army worm (Spodoptera frugiperda)" data_value=100
molecule=O=C(/C=C/c1c(-c2ccccc2Cl)nc2sc(C(F)(F)F)nn12)NC1CCC1 measurement_target="caterpillars of the army worm (Spodoptera frugiperda)" data_value=100

Query for caterpillars of the army worm (Spodoptera frugiperda): what pest or weed control at 500 g/ha does the record show for Cc1ccccc1-c1nc2sc(C(F)(F)F)nn2c1/C=C/C(=O)NC(C)C(C)C (stereo not shown) ?
83
